- target_of_assay: Cellular tumor antigen p53 (Homo sapiens)
- protocol_summary: ATG_p53_CIS: Attagene CIS-FACTORIAL HepG2 Assay for human p53 Transcription Factor (AID 2282994)
- reported_conditions: HepG2 p53 cis-element reporter, Attagene mRNA; actives raise or lower the signal
The source made the active and inactive calls. The calls were made as follows: active = hit-call score of the fitted dose curve at least 0.9, where 1 is the maximum; inactive = score below 0.9.
Returns: one label drawn from active, inactive

Recorded call for CC(C)N1C(=O)c2ccccc2C1=O ?
inactive

Recorded call for O=C(C=Cc1ccccc1)OCCCc1ccccc1 ?
inactive

Recorded call for OC[C@@H](O)[C@H](O)[C@@H](O)[C@@H](O)CO ?
inactive

Recorded call for CCCCCCCCCCCCCCCCCC(=O)OCCCCCCCCCCCCCC(C)C ?
inactive

Recorded call for NC(N)=NC(N)=NCCc1ccccc1 ?
inactive

Recorded call for CCCc1ccc(O)cc1 ?
inactive

Recorded call for C=CC(C)(CCC=C(C)C)OC(=O)CC (centres undefined) ?
inactive

Recorded call for CCOc1ccc(NC(C)=O)cc1 ?
inactive

Recorded call for CC(O)CNCC(C)O (centres undefined) ?
inactive

Recorded call for CC(=O)OC/C=C(C)/C=C/C=C(C)/C=C/C1=C(C)CCCC1(C)C ?
active

Recorded call for COC(=O)c1cccc(C(=O)OC)c1 ?
inactive

Recorded call for CC(C)Cc1ccccc1 ?
inactive

Recorded call for CCCCCC1C(=O)CCC1CC(=O)OC (centres undefined) ?
inactive

Recorded call for CC(C)(C)C1CCC(O)CC1 (centres undefined) ?
inactive

---

- target_of_assay: Cellular tumor antigen p53 (Homo sapiens)
- protocol_summary: ATG_p53_CIS: Attagene CIS-FACTORIAL HepG2 Assay for human p53 Transcription Factor (AID 2282994)
- reported_conditions: HepG2 p53 cis-element reporter, Attagene mRNA; actives raise or lower the signal
Active and inactive are the calls of the source. How the source made its calls: active means hit-call score of the fitted dose curve at least 0.9, where 1 is the maximum; inactive means score below 0.9.
Returns: one label drawn from active, inactive

Recorded call for CC(=O)c1cccnc1 ?
inactive

Recorded call for CCC(=O)OCC=Cc1ccccc1 ?
inactive

Recorded call for CN1CCc2cccc3c2[C@H]1Cc1ccc(O)c(O)c1-3 ?
inactive

Recorded call for C=CCOCC(O)CO (stereo not given) ?
inactive

Recorded call for CCCO[Si](OCCC)(OCCC)OCCC ?
inactive

Recorded call for COc1ccccc1NC(=O)CC(C)=O ?
inactive

Recorded call for Cc1ccncc1 ?
inactive

Recorded call for CC(=O)CCC=C(C)CCC=C(C)C ?
inactive

Recorded call for C=C/C(C)=C/C/C=C(\C)CCC=C(C)C ?
inactive

Recorded call for O=C(OCc1ccccc1)c1ccccc1O ?
active

Recorded call for CCOC(=O)CC1(C)OCC(C)O1 (stereo not given) ?
inactive

Recorded call for C=C(C)C(=O)OCCN(C)C ?
inactive

Recorded call for COc1ccc(C(C)=O)cc1 ?
inactive

Recorded call for CC(=O)Nc1cc(S(=O)(=O)O)cc2cc(S(=O)(=O)O)c(N=Nc3ccccc3)c(O)c12 ?
inactive

Recorded call for [O-]/[N+](=N\O)c1ccccc1 ?
inactive

Recorded call for CC/C=C\CCCCO ?
inactive

Recorded call for CCCCCCCCCOS(=O)(=O)O ?
inactive

Recorded call for CN(C)c1ccc(C=O)cc1 ?
inactive

Recorded call for O=C(O)C1=NN(c2ccc(S(=O)(=O)O)cc2)C(=O)C1 ?
inactive

Recorded call for CC(CO)c1ccccc1 (stereo not given) ?
inactive

Recorded call for CCCCOCCOC(=O)c1ccccc1C(=O)OCCOCCCC ?
inactive

Recorded call for CC=CC(=O)C1=C(C)C=CCC1(C)C ?
inactive

Recorded call for CC1=CC[C@@H](C(C)(C)O)CC1 ?
inactive

Recorded call for [Na+] ?
inactive

Recorded call for FC(F)(F)c1ccc(Cl)c(Cl)c1 ?
inactive

Recorded call for C=C1CC[C@H]2O[C@]2(C)CC[C@@H]2[C@@H]1CC2(C)C ?
inactive

Recorded call for CC1(C)CC(N)CC(C)(CN)C1 (stereo not given) ?
inactive

Recorded call for CCCC(O)C(CC)CO (stereo not given) ?
inactive

Recorded call for CCCCCC1CCC(=O)O1 (stereo not given) ?
inactive

Recorded call for CCCCCCCC1CCCC1=O (stereo not given) ?
inactive

Recorded call for COc1ccccc1O ?
inactive

Recorded call for CC1(C)[C@H](C=C(Cl)Cl)[C@H]1C(=O)OCc1cccc(Oc2ccccc2)c1 ?
inactive

Recorded call for CC1=CCC(C(C)C)=CC1 ?
inactive

Recorded call for C=CCCCCCCCCC(=O)OCC ?
inactive

Recorded call for CC(C)C(=O)OCC=Cc1ccccc1 ?
inactive

Recorded call for COc1ccc(OC)cc1 ?
inactive

Recorded call for CC1(C)CC(=O)CC(C)(C)N1 ?
inactive

Recorded call for O=S(=O)(O)c1cc(S(=O)(=O)O)c2c(N=Nc3ccccc3)c(O)ccc2c1 ?
inactive

Recorded call for CCCCCc1cccc(=O)o1 ?
inactive

Recorded call for CCCCOCCOCCO ?
inactive

Recorded call for CCCCCCCCCC(=O)OCC ?
inactive

Recorded call for O=C1CCC(=O)N1 ?
inactive

Recorded call for CC1=CC(C)C(C=O)C(C)C1 (stereo not given) (tested in a mixture with another compound) ?
inactive

Recorded call for CCCCCCCCCCCCOCCOS(=O)(=O)O ?
inactive

Recorded call for C=CC(=O)OCCCCCC ?
inactive

Recorded call for CC12CCC(C1)C(C)(C)C2O (stereo not given) ?
inactive

Recorded call for CCCCCCCCCO ?
inactive

Recorded call for CC(C)(CO)CO ?
inactive

Recorded call for CCCCCCOC(C)=O ?
inactive

Recorded call for CCCCCCCCOC(C)=O ?
inactive

Recorded call for ClCCOCCOCCCl ?
inactive

Recorded call for CCCCCCOc1ccc(O)cc1 ?
inactive

Recorded call for CCC(C)(C)C1CCC(=O)CC1 ?
inactive

Recorded call for CC/C=C\CCOC(C)OCC (stereo not given) ?
inactive

Recorded call for CC(=O)OC(C)(C)C1CC=C(C)CC1 (stereo not given) ?
inactive

Recorded call for CC1=CCC(C(C)(C)O)CC1 (stereo not given) ?
inactive

Recorded call for CCC(C)COC(=O)CC(C)C (stereo not given) ?
inactive

Recorded call for NC(N)=S ?
inactive

Recorded call for C=C(C)C(N)=O ?
inactive

Recorded call for Nc1ccc(O)c(N)c1 ?
inactive

Recorded call for O=C1OCc2ccccc21 ?
inactive

Recorded call for Cc1cc(N)n(-c2ccccc2)n1 ?
inactive

Recorded call for CC(C)(O)C(=O)c1ccc(OCCO)cc1 ?
inactive

Recorded call for NC(=O)c1cccnc1 ?
inactive

Recorded call for O=S(=O)(O)CCCN1CCOCC1 ?
inactive

---

- target_of_assay: Hepatocyte nuclear factor 4-alpha (Homo sapiens) (UniProt P41235)
- Sequence (P41235 whole entry, looked up): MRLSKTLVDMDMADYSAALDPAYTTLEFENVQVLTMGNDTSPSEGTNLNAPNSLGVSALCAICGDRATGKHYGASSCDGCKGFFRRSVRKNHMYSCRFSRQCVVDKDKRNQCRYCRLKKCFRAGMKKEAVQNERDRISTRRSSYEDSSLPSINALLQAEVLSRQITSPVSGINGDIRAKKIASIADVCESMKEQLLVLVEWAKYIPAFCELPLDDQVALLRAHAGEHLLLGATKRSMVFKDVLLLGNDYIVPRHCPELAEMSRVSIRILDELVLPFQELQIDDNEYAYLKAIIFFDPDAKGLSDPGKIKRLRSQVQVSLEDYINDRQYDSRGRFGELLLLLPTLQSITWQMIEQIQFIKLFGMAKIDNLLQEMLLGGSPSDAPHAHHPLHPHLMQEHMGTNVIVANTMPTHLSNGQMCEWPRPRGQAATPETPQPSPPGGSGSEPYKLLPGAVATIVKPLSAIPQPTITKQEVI
- protocol_summary: ATG_HNF4a_TRANS: Attagene TRANS-FACTORIAL HepG2 Assay for human Hepatocyte Nuclear Factor 4 alpha (HNF4a) (AID 2282982)
- reported_conditions: HepG2 HNF4a transactivation reporter, mRNA readout
Inconclusive results are not listed. Activity calls are given as the source filed them. Rule for the calls: active = hit-call score of the fitted dose curve at least 0.9, where 1 is the maximum; inconclusive = response in the unintended direction; inactive = score below 0.9.
measurement_label: outcome

Previously resolved entries follow.
[[record]]
compound = "CCCCOCC(C)OCC(C)O (centres undefined)"
measurement_label = "outcome"
experimental_value = "inactive"

[[record]]
compound = "N#CCCNCCC#N"
measurement_label = "outcome"
experimental_value = "inactive"

[[record]]
compound = "CC(C)C(=O)c1ccccc1"
measurement_label = "outcome"
experimental_value = "inactive"

[[record]]
compound = "O=C(c1ccc(OCCN2CCCCC2)cc1)c1c(-c2ccc(O)cc2)sc2cc(O)ccc12"
measurement_label = "outcome"
experimental_value = "inactive"

[[record]]
compound = "C=C(C)C(=O)OCCN(C)C"
measurement_label = "outcome"
experimental_value = "inactive"


Consider the compound shown here: C[N+](C)(C)CCO What is its recorded outcome?
inactive

Consider the compound shown here: CCCCCCOC(C)=O What is its recorded outcome?
inactive

Consider the compound shown here: Cc1cc(O)c2c(c1)C(=O)c1cc(O)cc(O)c1C2=O What is its recorded outcome?
inactive

Consider the compound shown here: CC(O)CNCC(C)O (centres undefined) What is its recorded outcome?
inactive

Consider the compound shown here: CC(=O)OC(C)(C)C What is its recorded outcome?
inactive

Consider the compound shown here: CC1=CCC(=C(C)C)CC1 What is its recorded outcome?
inactive

Consider the compound shown here: CC(C)=CC(=O)O What is its recorded outcome?
inactive

---

- protocol_summary: ATG_PXRE_CIS: Attagene CIS-FACTORIAL HepG2 Assay for human Pregnane X Receptor Element (PXRE) (AID 2282957)
- reported_conditions: HepG2 Attagene CIS-FACTORIAL PXRE reporter, mRNA; actives raise or lower the signal
Active and inactive are the calls of the source. Rule for the calls: active = hit-call score of the fitted dose curve at least 0.9, where 1 is the maximum; inactive = score below 0.9.
Returns: one label drawn from active, inactive

Recorded call for CCCCCCCCCCCCCC(=O)OCC ?
inactive

Recorded call for CCC(C)C1CCCCC1=O (configuration not stated) ?
inactive

Recorded call for CCCCN(CCO)CCO ?
inactive

Recorded call for NC(N)=S ?
inactive

Recorded call for CC(=O)Nc1cc(S(=O)(=O)O)cc2cc(S(=O)(=O)O)c(N=Nc3ccccc3)c(O)c12 ?
inactive

Recorded call for CC1=CC[C@@H](C(C)(C)O)CC1 ?
inactive

Recorded call for C=C1CC[C@H]2O[C@]2(C)CC[C@@H]2[C@@H]1CC2(C)C ?
inactive

Recorded call for CC=CC(=O)C1=C(C)C=CCC1(C)C ?
active

Recorded call for CCC(=O)OC(C)(C)C1CC=C(C)CC1 (configuration not stated) ?
active

Recorded call for CCCCCCCCCCCCOCCOS(=O)(=O)O ?
active

Recorded call for CC1=CC[C@@H]2C[C@H]1C2(C)C ?
inactive

Recorded call for CC(C)C(=O)OCC=Cc1ccccc1 ?
active

Recorded call for CCCO ?
active

Recorded call for C1=COCCC1 ?
inactive

Recorded call for CCOc1ccc(NC(C)=O)cc1 ?
inactive

Recorded call for CCCCCCOc1ccc(O)cc1 ?
active

Recorded call for CC(CO)c1ccccc1 (configuration not stated) ?
inactive

Recorded call for Cc1cc(O)c(C)c(C)c1O ?
active

Recorded call for C[N+](C)(C)CCO ?
inactive

Recorded call for Cc1cc(O)c2c(c1)C(=O)c1cc(O)cc(O)c1C2=O ?
inactive

Recorded call for O=C(O)c1cccc(Cl)n1 ?
inactive

Recorded call for CC(C)N1C(=O)c2ccccc2C1=O ?
active

Recorded call for CCCCCC1C(=O)CCC1CC(=O)OC (configuration not stated) ?
inactive

Recorded call for CCCC(O)C(CC)CO (configuration not stated) ?
active

Recorded call for CC(C)(C)c1cccc(O)c1 ?
active

Recorded call for CC1(C)[C@H](C=C(Cl)Cl)[C@H]1C(=O)OCc1cccc(Oc2ccccc2)c1 ?
active

Recorded call for CC12CCC(C1)C(C)(C)C2O (configuration not stated) ?
inactive

Recorded call for CC1(C)CC(=O)CC(C)(C)N1 ?
active

Recorded call for CCC(=O)OC/C=C(\C)CCC=C(C)C ?
active

Recorded call for C1COCO1 ?
inactive

Recorded call for c1ccc(Cc2ccccc2)cc1 ?
inactive

Recorded call for COC(=O)c1cccc(C(=O)OC)c1 ?
inactive

Values compiled from PubChem BioAssay (EPA / NIEHS).
